Reported Emax values are given for each entry in this list.
target: wild-type Androgen Receptor (AR-wt) (Homo sapiens (Human)); assay: LNCaP-AR-wt AG reporter assay (agonist mode); type: cell-based; details: maximum % stimulation (agonist response) over the tested concentration range; read-out: LNCaP-AR-wt AG MAX % Stim
Property: Emax (%)

Compound: COc1cc(N2C(=O)C3(CCC3)N(c3ccc4nn(CCO)cc4c3)C2=S)cnc1C#N
Observed measurement: 0.3
--
Compound: N#Cc1ncc(N2C(=O)C3(CCC3)N(c3ccc4c(cnn4CCO)c3)C2=S)cc1C(F)(F)F
Observed measurement: 0.2
--
Compound: CN1CC(Oc2ccc(N3C(=S)N(c4cnc(C#N)c(C(F)(F)F)c4)C(=O)C34CCC4)cc2)C1
Observed measurement: 0.2
--
Compound: COc1cc(N2C(=O)C3(CCC3)N(c3ccc4c(cnn4CCO)c3)C2=S)cnc1C#N
Observed measurement: -0.2
--
Compound: N#Cc1ncc(N2C(=O)C3(CCC3)N(c3ccc(OC4CC5CC4CN5)cc3)C2=S)cc1C(F)(F)F (centres unmarked)
Observed measurement: 0.4
--
Compound: CN1C2CCC1C(F)C(Oc1ccc(N3C(=S)N(c4cnc(C#N)c(C(F)(F)F)c4)C(=O)C34CCC4)cc1)C2 (centres unmarked)
Observed measurement: 0.8
--
Compound: CN1CCC(Cn2ncc3cc(N4C(=S)N(c5cnc(C#N)c(C(F)(F)F)c5)C(=O)C45CCC5)ccc32)CC1
Observed measurement: 0.5
--
Compound: CC(C)(C)OC(=O)N1CCC(n2cc3cc(N4C(=S)N(c5cnc(C#N)c(C(F)(F)F)c5)C(=O)C45CCC5)ccc3n2)CC1
Observed measurement: -0.1
--
Compound: C#CCN1CC(Oc2ccc(N3C(=S)N(c4cnc(C#N)c(C(F)(F)F)c4)C(=O)C34CCC4)cc2)C1
Observed measurement: 0
--
Compound: N#Cc1ncc(N2C(=O)C3(CCC3)N(c3ccc(OC4CC5(CCN5)C4)cc3)C2=S)cc1C(F)(F)F (centres unmarked)
Observed measurement: 0.1
--
Compound: C=CCN1CCC(Oc2ccc(N3C(=S)N(c4cnc(C#N)c(C(F)(F)F)c4)C(=O)C34CCC4)cn2)CC1
Observed measurement: 0.4

---

Reported Emax values are given for each entry in this list.
molecular target: wild-type Androgen Receptor (AR-wt) (Homo sapiens (Human), UniProt P10275); test: LNCaP-AR-wt ANT reporter assay (antagonist mode); type: cell-based; details: maximum % inhibition of R1881 control response over the tested concentration range; read-out: LNCaP-AR-wt ANT MAX % Inh
Sequence (P10275 whole entry): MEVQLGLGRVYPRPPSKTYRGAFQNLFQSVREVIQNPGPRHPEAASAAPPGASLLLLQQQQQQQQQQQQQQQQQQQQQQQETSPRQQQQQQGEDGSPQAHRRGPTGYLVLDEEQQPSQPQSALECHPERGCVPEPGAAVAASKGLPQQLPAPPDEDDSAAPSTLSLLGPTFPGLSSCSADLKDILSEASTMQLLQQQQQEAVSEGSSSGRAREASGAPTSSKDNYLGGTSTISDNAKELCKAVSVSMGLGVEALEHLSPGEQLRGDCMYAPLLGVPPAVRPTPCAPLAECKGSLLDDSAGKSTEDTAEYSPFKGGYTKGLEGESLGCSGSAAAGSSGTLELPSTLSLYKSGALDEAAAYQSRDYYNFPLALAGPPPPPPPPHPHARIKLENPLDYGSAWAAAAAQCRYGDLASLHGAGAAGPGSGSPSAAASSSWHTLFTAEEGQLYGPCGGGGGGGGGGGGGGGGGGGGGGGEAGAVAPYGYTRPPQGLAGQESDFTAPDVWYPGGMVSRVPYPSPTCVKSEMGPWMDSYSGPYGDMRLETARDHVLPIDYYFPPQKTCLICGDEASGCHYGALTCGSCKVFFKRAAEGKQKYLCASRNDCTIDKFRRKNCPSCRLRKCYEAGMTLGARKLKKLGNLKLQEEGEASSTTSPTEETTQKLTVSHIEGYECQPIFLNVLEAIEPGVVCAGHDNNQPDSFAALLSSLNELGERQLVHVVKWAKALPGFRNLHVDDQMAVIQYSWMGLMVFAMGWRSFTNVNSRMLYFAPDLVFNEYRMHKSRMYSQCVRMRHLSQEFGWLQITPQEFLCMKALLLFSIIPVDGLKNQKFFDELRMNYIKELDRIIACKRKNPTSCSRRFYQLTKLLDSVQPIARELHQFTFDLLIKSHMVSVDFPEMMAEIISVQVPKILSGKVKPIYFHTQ

Molecule: CC(=O)N1CC(F)(F)CC1COc1ccc(N2C(=S)N(c3cnc(C#N)c(C(F)(F)F)c3)C(=O)C23CCC3)cc1 (stereo not drawn) [Cpd 71]
Emax: 101%
--
Molecule: N#Cc1ncc(N2C(=O)C3(CCC3)N(c3ccc(OCCN4CC5(COC5)C4)cc3)C2=S)cc1C(F)(F)F [Cpd 105]
Emax: 100%
--
Molecule: CN1C2C=C(c3ccc(N4C(=S)N(c5cnc(C#N)c(C(F)(F)F)c5)C(=O)C45CCC5)cc3)CC1CC2 (stereo not drawn) [Cpd 127]
Emax: 102%
--
Molecule: CNC1CCC(Oc2ccc(N3C(=S)N(c4cnc(C#N)c(C(F)(F)F)c4)C(=O)C34CCC4)cc2)CC1 (stereo not drawn) [Cpd 80]
Emax: 102%
--
Molecule: N#CCN1CCC(Oc2ccc(N3C(=S)N(c4cnc(C#N)c(Cl)c4)C(=O)C34CCC4)cn2)CC1 [Cpd 65]
Emax: 101%
--
Molecule: N#Cc1ncc(N2C(=O)C3(CCC3)N(c3ccc(OC4CCN(CCO)CC4)nc3)C2=S)cc1C(F)(F)F [Cpd 63]
Emax: 102%
--
Molecule: N#Cc1ncc(N2C(=O)C3(CCC3)N(c3ccc(OC4CCN(CCF)CC4)cc3)C2=S)cc1C(F)(F)F [Cpd 77]
Emax: 102%
--
Molecule: N#Cc1ncc(N2C(=O)C3(CCC3)N(c3ccc(OC4CCNCC4)nc3)C2=S)cc1Cl [Cpd 64]
Emax: 101%
--
Molecule: Cc1cc(N2C(=O)C3(CCC3)N(c3ccc(OC4CCN(CC(F)(F)F)CC4)nc3)C2=S)cnc1C#N [Cpd 62]
Emax: 100%
--
Molecule: N#Cc1ncc(N2C(=O)C3(CCC3)N(c3ccc4c(c3)CCNC4)C2=S)cc1C(F)(F)F [Cpd 108]
Emax: 98.3%
--
Molecule: N#Cc1ncc(N2C(=O)C3(CCC3)N(c3ccc(OC4CCN(C5CC5)CC4)cc3)C2=S)cc1C(F)(F)F [Cpd 36]
Emax: 100%
--
Molecule: CN1CCC(Cn2cc3cc(N4C(=S)N(c5cnc(C#N)c(C(F)(F)F)c5)C(=O)C45CCC5)ccc3n2)CC1 [Cpd 129]
Emax: 102%
